Listed below: melting point values for each entry.
endpoint: melting point

[[record]]
molecule = "c1ccc2nc(Cn3ccnc3)ccc2c1"
test_value = "106 to 107 °C"

[[record]]
molecule = "COc1cc2cc(C=O)c(Cl)nc2cc1F"
test_value = "180 °C"

[[record]]
molecule = "COC(=O)[C@@H]1[C@H](NC(=O)Cc2ccccc2)C(=O)N1Cc1ccc(OC)cc1OC (relative stereo)"
test_value = "124 to 126 °C"

[[record]]
molecule = "CCNc1ccc(S(=O)c2ccccc2)cc1[N+](=O)[O-] (stereo not given)"
test_value = "122 to 124 °C"

[[record]]
molecule = "CC(C)c1ccc(OCC(=O)Cl)cc1"
test_value = "104 to 105 °C"

[[record]]
molecule = "COc1ccc(OC)c(C(=O)c2oc3ccccc3c2O)c1"
test_value = "158 °C"

[[record]]
molecule = "CCCCc1ncc(/C(C)=C(\\Cc2ccccc2)C(=O)O)n1Cc1ccccc1Cl"
test_value = "206 to 207 °C"

[[record]]
molecule = "Cc1ccc(-c2ccc3c(c2)C=CCCO3)cc1"
test_value = "98 to 100 °C"

[[record]]
molecule = "N#Cc1cc([N+](=O)[O-])cc(C#N)c1N"
test_value = "160 to 163 °C"

[[record]]
molecule = "COC(=O)[C@@H]1C[C@H](OC(=O)c2cc3ccccc3o2)C(=O)[C@H]2[C@@]1(C)CC[C@H]1C(=O)O[C@H](c3ccoc3)C[C@]21C"
test_value = "226 to 227 °C"

[[record]]
molecule = "CN(CCOc1cccc2ccn(C(=O)OC(C)(C)C)c12)C(=O)OC(C)(C)C"
test_value = "74 to 76 °C"

[[record]]
molecule = "C=CCc1cccc2c(=O)c(C)c(C=Cc3ccccc3)oc12"
test_value = "126 °C"

[[record]]
molecule = "CC(=O)SCCC(=O)N1[C@@H](c2ccccc2O)SC[C@H]1C(=O)N[C@@H](CC(C)C)C(=O)O"
test_value = "78 to 84 °C"

[[record]]
molecule = "CCCn1nc2c(N)nc3ccccc3c2c1NCC"
test_value = "193 to 194 °C"

[[record]]
molecule = "FC(F)(F)Oc1ccc(-c2cc(-n3ccc(C(F)(F)F)n3)c3ccccc3n2)cc1"
test_value = "108 to 110 °C"

[[record]]
molecule = "O=c1[nH]c2ccccc2n1CCCN1CCN(C(c2ccccc2)c2ccccc2Cl)CC1 (stereo not given)"
test_value = "139 °C"

[[record]]
molecule = "COc1ccc(-n2nc(Sc3ccc(-c4ccccc4)cc3)c(C)c(C#N)c2=O)cc1"
test_value = "205 to 207 °C"

[[record]]
molecule = "CCOC(=O)c1ccc(/C=C(\\C)c2ccc3c(c2)CCC(C)(C)CS3)cc1"
test_value = "96 to 97 °C"

[[record]]
molecule = "OCCc1cc(-c2ccc(Cl)cc2)no1"
test_value = "65.5 to 67.5 °C"

[[record]]
molecule = "CC(C)(C)OC(=O)COc1cc(NC(=O)OC(C)(C)C)c(N)cc1-c1ccc(F)cc1"
test_value = "30 to 33 °C"


* * *

Catalogue of melting point values
endpoint: melting point

[[record]]
molecule = "NC(=O)Cc1cccc(C(=O)c2ccc(Cl)cc2)c1N"
test_value = "212 to 215 °C"

[[record]]
molecule = "CC1(C)OCc2cc(Cl)cc(C(O)c3cn(C(c4ccccc4)(c4ccccc4)c4ccccc4)cn3)c2O1 (stereo not given)"
test_value = "120 °C"

[[record]]
molecule = "O=C(Nc1ccc2ccc(-c3cccc(Br)c3)nc2n1)c1cccc(Br)c1"
test_value = "144 to 146 °C"

[[record]]
molecule = "C[C@H](NC(=O)c1ccc(N)cc1F)C(=O)O"
test_value = "244 to 248 °C"

[[record]]
molecule = "CN1CCC(Oc2ccccc2N)(c2ccccc2)CC1"
test_value = "129 to 130 °C"

[[record]]
molecule = "COc1cc(C(=O)N(C2CCCC2)C2CCCC2)ccc1Cn1cccc2ncnc1-2"
test_value = "223 to 224 °C"

[[record]]
molecule = "CN1CCN(c2cccc(-n3cnc4cc(C=O)ccc43)c2)CC1"
test_value = "199 to 201 °C"

[[record]]
molecule = "O=c1c2ccccc2ccc2cc(Cl)ccc12"
test_value = "160 to 161 °C"

[[record]]
molecule = "O=C(O)CCCC/C=C(\\c1ccc(-c2nc(C(=O)N[C@@H]3C[C@H]3c3ccccc3)co2)cc1)c1cccnc1"
test_value = "78 to 87 °C"

[[record]]
molecule = "Cc1ccc(-c2nc3ccccc3c(=O)[nH]2)cc1"
test_value = "239 to 241 °C"


* * *

endpoint: melting point

[[record]]
compound = "CN(CCO)C(=O)Nc1ccc([N+](=O)[O-])c(C(F)(F)F)c1"
endpoint = "melting point"
test_value = "180 to 181 °C"

[[record]]
compound = "Cc1c(C)c(Cl)c2[nH]c(Cl)nc2c1Cl"
endpoint = "melting point"
test_value = "280 to 285 °C"

[[record]]
compound = "C[C@H](CS(C)(=O)=O)Nc1n[nH]c2nc(Oc3ccc(F)cc3F)ncc12"
endpoint = "melting point"
test_value = "178 to 179 °C"

[[record]]
compound = "CN=CN(C)c1nc(-c2cc(Cl)nc(Cl)c2)cs1"
endpoint = "melting point"
test_value = "145 °C"

[[record]]
compound = "N#Cc1cc(-n2c3ccccc3[nH]c(=N)[nH]c3ccccc32)ccc1Cl"
endpoint = "melting point"
test_value = "225 to 228 °C"

[[record]]
compound = "O=[N+]([O-])c1ccccc1OC[C@@H](O)CNCCc1ccc(Cl)c(Cl)c1"
endpoint = "melting point"
test_value = "73 to 74 °C"

[[record]]
compound = "COc1ccc(C(CC(=O)c2ccccc2)C(=O)O)cc1 (stereo not given)"
endpoint = "melting point"
test_value = "157 to 158 °C"

[[record]]
compound = "CCc1cccc(-c2ccc(S(=O)(=O)N3c4ccccc4CC3C(=O)O)cc2)c1 (stereo not given)"
endpoint = "melting point"
test_value = "70 to 72 °C"

[[record]]
compound = "CCC(CC)n1nnc2c(Nc3ccc(C(C)=O)cc3Br)nc(C)nc21"
endpoint = "melting point"
test_value = "153 to 154 °C"

[[record]]
compound = "CC(C)(C)c1cc(C=C2Sc3ccccc3N(CP(=O)(O)O)C2=O)cc(C(C)(C)C)c1O"
endpoint = "melting point"
test_value = "232 to 233 °C"

[[record]]
compound = "Cc1cccc(C)c1NC(=O)CCS(=O)c1cc(C(C)(C)C)c(O)c(C(C)(C)C)c1 (stereo not given)"
endpoint = "melting point"
test_value = "162 to 164 °C"

[[record]]
compound = "CS(=O)(=O)c1ccc(CN2C(=O)C3(COc4cc5c(cc43)OCO5)c3ccccc32)o1 (stereo not given)"
endpoint = "melting point"
test_value = "177 to 179 °C"

[[record]]
compound = "O=[N+]([O-])c1cc(I)cc(CO)c1"
endpoint = "melting point"
test_value = "85.5 to 86.5 °C"

[[record]]
compound = "O=C(Nc1ccc(O)cc1)OCC(Cl)(Cl)Cl"
endpoint = "melting point"
test_value = "134 °C"

[[record]]
compound = "CC(C)Cc1nc2ccc(O)cc2c(-c2ccccc2F)c1C#N"
endpoint = "melting point"
test_value = "256 to 257 °C"

[[record]]
compound = "FC(F)(F)c1ccc(-c2nnc(-c3cccc(C4OCCO4)c3)o2)cc1"
endpoint = "melting point"
test_value = "107 to 108 °C"

[[record]]
compound = "CCn1ncc2c3c(NCc4ccc(OC)c(Cl)c4)nnc(-n4cnc(C(=O)NC)c4)c3cnc21"
endpoint = "melting point"
test_value = "181 to 183 °C"

[[record]]
compound = "O=C(O)C=Cc1ccc(/C=C/c2ccncc2)cc1"
endpoint = "melting point"
test_value = "> 300 °C"

[[record]]
compound = "O=Cc1ccc(C2=NOC(c3cc(Cl)cc(Cl)c3)(C(F)(F)F)C2)cc1Cl (stereo not given)"
endpoint = "melting point"
test_value = "129 to 130 °C"

[[record]]
compound = "CCOc1ccc(NC=C(C#N)C(=O)Nc2cc(OC)c(Cl)cc2Cl)cc1I"
endpoint = "melting point"
test_value = "> 245 °C"

